The measurements presented in this section are drawn from the supplement of paper PMC11061612.

Let's look at some compounds and their measured combination Emax.
- Test system: RPMI-8866 (Chronic Myelogenous Leukemia)
- measurement_notes: combination Emax (second highest fraction inhibited in the dose matrix, 72 h); higher = more inhibition; extreme values may be limits of the assay

| compound | study_target | combination Emax |
| --- | --- | --- |
| CN(C)CCCOc1ccc(-c2ccc3ncc4c(c3c2)n(C2CCOCC2)c(=O)n4C)cn1 [AZD0156] + O=C(c1cc(Cc2n[nH]c(=O)c3ccccc23)ccc1F)N1CCN(C(=O)C2CC2)CC1 [Olaparib] (first compound max 3 µM, partner max 3 µM) | RPMI-8866 (Chronic Myelogenous Leukemia) | 0.285 |
| COc1cccc(OCCCN)c1-c1cc(Nc2cnc(C#N)cn2)n[nH]1 [Prexasertib] + C[C@@H]1COCCN1C2=NC(=NC(=C2)C3(CC3)[S@](=N)(=O)C)C4=C5C=CNC5=NC=C4 [AZD6738] (first compound max 1 µM, 7x7, partner max 10 µM) | RPMI-8866 (Chronic Myelogenous Leukemia) | 1 |
| CC1(C)CCC(CN2CCN(c3ccc(C(=O)NS(=O)(=O)c4ccc(NCC5CCOCC5)c([N+](=O)[O-])c4)c(Oc4cnc5[nH]ccc5c4)c3)CC2)=C(c2ccc(Cl)cc2)C1 [Venetoclax] + Cc1cc2ncnn2cc1Nc1ncc2c(n1)n(C1CCOCC1)c(=O)n2C [AZD7648] (first compound max 1 µM, 7x7, partner max 10 µM) | RPMI-8866 (Chronic Myelogenous Leukemia) | 0.316 |
| C[C@@H](c1ccc2nccn2c1)n1nnc2ncc(-c3cnn(C)c3)nc21 [Savolitinib] + Cc1c2c(nn1C)CSCc1cc(n(C)n1)CSc1cc(c3ccccc3c1)OCCCc1c(C(=O)O)n(C)c3c-2c(Cl)ccc13 [AZD5991] (first compound max 1 µM, 7x7, partner max 1 µM) | RPMI-8866 (Chronic Myelogenous Leukemia) | 0.108 |

----------
- System: OCI-AML5 (Acute Myeloid Leukemia)
- measurement_notes: Bliss excess, mean over the matrix (fraction); higher = more synergy
Kindly return 1.0 if reported Bliss excess is no lower than 0.01; return 0.0 if it is lower.

| compound | study_target | qualitative_label |
| --- | --- | --- |
| Cc1c2c(nn1C)CSCc1cc(n(C)n1)CSc1cc(c3ccccc3c1)OCCCc1c(C(=O)O)n(C)c3c-2c(Cl)ccc13 [AZD5991] + C=CCn1c(=O)c2cnc(Nc3ccc(N4CCN(C)CC4)cc3)nc2n1-c1cccc(C(C)(C)O)n1 [AZD1775] (first compound max 1 µM, partner max 1 µM) | OCI-AML5 (Acute Myeloid Leukemia) | 0.0 |
| Cc1c2c(nn1C)CSCc1cc(n(C)n1)CSc1cc(c3ccccc3c1)OCCCc1c(C(=O)O)n(C)c3c-2c(Cl)ccc13 [AZD5991] + CCN(CCO)CCCOc1ccc2c(Nc3cc(CC(=O)Nc4cccc(F)c4)[nH]n3)ncnc2c1 [AZD2811] (first compound max 1 µM, 7x7, partner max 1 µM) | OCI-AML5 (Acute Myeloid Leukemia) | 0.0 |
| Cn1cnc2c(F)c(Nc3ccc(Br)cc3Cl)c(C(=O)NOCCO)cc21 [Selumetinib] + C=CCn1c(=O)c2cnc(Nc3ccc(N4CCN(C)CC4)cc3)nc2n1-c1cccc(C(C)(C)O)n1 [AZD1775] (first compound max 10 µM, partner max 1 µM) | OCI-AML5 (Acute Myeloid Leukemia) | 1.0 |
| CN(CCO)CC[C@H](CSc1ccccc1)Nc1ccc(S(=O)(=O)NC(=O)c2ccc(N3CCC([C@@H](O)c4ccccc4-c4ccc(Cl)cc4)CC3)cc2)cc1S(=O)(=O)C(F)(F)F [AZD4320] + Cn1cnc2c(F)c(Nc3ccc(Br)cc3Cl)c(C(=O)NOCCO)cc21 [Selumetinib] (first compound max 1 µM, 7x7, partner max 3 µM) | OCI-AML5 (Acute Myeloid Leukemia) | 1.0 |

----------
Some compounds, each annotated with its measured Bliss excess.
- System: BALL-1 (B-Lymphoblastic Leukemia)
- measurement_notes: Bliss excess, mean over the matrix (fraction); higher = more synergy

| compound | Bliss excess |
| --- | --- |
| Cc1cc2ncnn2cc1Nc1ncc2c(n1)n(C1CCOCC1)c(=O)n2C [AZD7648] + C=CCn1c(=O)c2cnc(Nc3ccc(N4CCN(C)CC4)cc3)nc2n1-c1cccc(C(C)(C)O)n1 [AZD1775] (first compound max 10 µM, partner max 1 µM) | -0.0169 |
| CC1(C)CCC(CN2CCN(c3ccc(C(=O)NS(=O)(=O)c4ccc(NCC5CCOCC5)c([N+](=O)[O-])c4)c(Oc4cnc5[nH]ccc5c4)c3)CC2)=C(c2ccc(Cl)cc2)C1 [Venetoclax] + COc1cc(Nc2ncc3c(n2)-c2ccc(Cl)cc2C(c2c(F)cccc2OC)=NC3)ccc1C(=O)O [Alisertib] (first compound max 1 µM, 7x7, partner max 10 µM) | 0.0181 |
| Cc1c2c(nn1C)CSCc1cc(n(C)n1)CSc1cc(c3ccccc3c1)OCCCc1c(C(=O)O)n(C)c3c-2c(Cl)ccc13 [AZD5991] + CCN(CCO)CCCOc1ccc2c(Nc3cc(CC(=O)Nc4cccc(F)c4)[nH]n3)ncnc2c1 [AZD2811] (first compound max 1 µM, 7x7, partner max 1 µM) | 0.213 |
| CN(CCO)CC[C@H](CSc1ccccc1)Nc1ccc(S(=O)(=O)NC(=O)c2ccc(N3CCC([C@@H](O)c4ccccc4-c4ccc(Cl)cc4)CC3)cc2)cc1S(=O)(=O)C(F)(F)F [AZD4320] + CN(C)CCCOc1ccc(-c2ccc3ncc4c(c3c2)n(C2CCOCC2)c(=O)n4C)cn1 [AZD0156] (first compound max 1 µM, 7x7, partner max 1 µM) | -0.0185 |
| CN(CCO)CC[C@H](CSc1ccccc1)Nc1ccc(S(=O)(=O)NC(=O)c2ccc(N3CCC([C@@H](O)c4ccccc4-c4ccc(Cl)cc4)CC3)cc2)cc1S(=O)(=O)C(F)(F)F [AZD4320] + Cc1cc2ncnn2cc1Nc1ncc2c(n1)n(C1CCOCC1)c(=O)n2C [AZD7648] (first compound max 1 µM, 7x7, partner max 10 µM) | 0.0087 |
| COc1cc2ncnc(Nc3ccc(F)c(Cl)c3)c2cc1OCCCN1CCOCC1 [Gefitinib] + CC(C)n1c(=O)n(C)c2cnc3cc(F)c(-c4ccc(OCCCN5CCCCC5)nc4)cc3c21 [AZD1390] (first compound max 10 µM, 7x7, partner max 0.3 µM) | -0.07 |
| C=CCn1c(=O)c2cnc(Nc3ccc(N4CCN(C)CC4)cc3)nc2n1-c1cccc(C(C)(C)O)n1 [AZD1775] + C[C@@H]1COCCN1C2=NC(=NC(=C2)C3(CC3)[S@](=N)(=O)C)C4=C5C=CNC5=NC=C4 [AZD6738] (first compound max 1 µM, partner max 10 µM) | 0.0441 |
| C[C@@H](c1ccc2nccn2c1)n1nnc2ncc(-c3cnn(C)c3)nc21 [Savolitinib] + CN(CC[C@H](CSC1=CC=CC=C1)NC2=C(C=C(C=C2)S(=O)(=O)NC(=O)C3=CC=C(C=C3)N4CCC(CC4)[C@H](C5=CC=CC=C5C6=CC=C(C=C6)Cl)O)S(=O)(=O)C(F)(F)F)CCO [AZD4320] (first compound max 1 µM, 7x7, partner max 1 µM) | -0.0078 |

----------
- Test system: NCI-H196 (Small Cell Lung Carcinoma)
- measurement_notes: Bliss excess, mean over the matrix (fraction); higher = more synergy
Bucketed by reported Bliss excess, buckets being b0: < -0.04; b1: ≥ -0.04 and < -0.03; b2: ≥ -0.03

| molecule | qualitative_label |
| --- | --- |
| CC1(C)CCC(CN2CCN(c3ccc(C(=O)NS(=O)(=O)c4ccc(NCC5CCOCC5)c([N+](=O)[O-])c4)c(Oc4cnc5[nH]ccc5c4)c3)CC2)=C(c2ccc(Cl)cc2)C1 [Venetoclax] + C1CN(CCC1(C(=O)N[C@@H](CCO)C2=CC=C(C=C2)Cl)N)C3=NC=NC4=C3C=CN4 [Capivasertib] (first compound max 1 µM, 7x7, partner max 3 µM) | b1 |
| NC1(C(=O)N[C@@H](CCO)c2ccc(Cl)cc2)CCN(c2ncnc3[nH]ccc23)CC1 [Capivasertib] + CC(C)n1c(=O)n(C)c2cnc3cc(F)c(-c4ccc(OCCCN5CCCCC5)nc4)cc3c21 [AZD1390] (first compound max 10 µM, 7x7, partner max 0.3 µM) | b0 |
| CC(=O)Nc1cccc(-n2c(=O)n(C3CC3)c(=O)c3c(Nc4ccc(I)cc4F)n(C)c(=O)c(C)c32)c1 [Trametinib] + Cc1nc(-c2cn3c(n2)-c2ccc(-c4cnn(C(C)(C)C(N)=O)c4)cc2OCC3)n(C(C)C)n1 [Taselisib] (first compound max 1 µM, 7x7, partner max 10 µM) | b2 |
| Cc1c2c(nn1C)CSCc1cc(n(C)n1)CSc1cc(c3ccccc3c1)OCCCc1c(C(=O)O)n(C)c3c-2c(Cl)ccc13 [AZD5991] + C=CCn1c(=O)c2cnc(Nc3ccc(N4CCN(C)CC4)cc3)nc2n1-c1cccc(C(C)(C)O)n1 [AZD1775] (first compound max 1 µM, partner max 1 µM) | b2 |
| COc1nnc2ccc(N3CCC(c4ccc(OCCN5CCN(C)C(=O)[C@H]5C)cc4)CC3)nn12 [AZD5153] + C[C@@H]1COCCN1C2=NC(=NC(=C2)C3(CC3)[S@](=N)(=O)C)C4=C5C=CNC5=NC=C4 [AZD6738] (first compound max 1 µM, 7x7, partner max 10 µM) | b2 |
| COc1cc2c(cc1OCCCCCOc1cc3c(cc1OC)C(=O)N1C=C(C)C[C@H]1C=N3)N=C[C@@H]1CC(C)=CN1C2=O [SG3199] + O=C(c1cc(Cc2n[nH]c(=O)c3ccccc23)ccc1F)N1CCN(C(=O)C2CC2)CC1 [Olaparib] (first compound max 0.001 µM, 7x7, partner max 10 µM) | b1 |
| C[C@@H](c1ccc2nccn2c1)n1nnc2ncc(-c3cnn(C)c3)nc21 [Savolitinib] + CC1(C)CCC(CN2CCN(c3ccc(C(=O)NS(=O)(=O)c4ccc(NCC5CCOCC5)c([N+](=O)[O-])c4)c(Oc4cnc5[nH]ccc5c4)c3)CC2)=C(c2ccc(Cl)cc2)C1 [Venetoclax] (first compound max 1 µM, 7x7, partner max 1 µM) | b0 |
| NC1(C(=O)N[C@@H](CCO)c2ccc(Cl)cc2)CCN(c2ncnc3[nH]ccc23)CC1 [Capivasertib] + COc1nnc2ccc(N3CCC(c4ccc(OCCN5CCN(C)C(=O)[C@H]5C)cc4)CC3)nn12 [AZD5153] (first compound max 10 µM, 7x7, partner max 1 µM) | b2 |
| Cc1cc2ncnn2cc1Nc1ncc2c(n1)n(C1CCOCC1)c(=O)n2C [AZD7648] + C=CCn1c(=O)c2cnc(Nc3ccc(N4CCN(C)CC4)cc3)nc2n1-c1cccc(C(C)(C)O)n1 [AZD1775] (first compound max 10 µM, partner max 1 µM) | b2 |
| Cn1cnc2c(F)c(Nc3ccc(Br)cc3Cl)c(C(=O)NOCCO)cc21 [Selumetinib] + C=CCn1c(=O)c2cnc(Nc3ccc(N4CCN(C)CC4)cc3)nc2n1-c1cccc(C(C)(C)O)n1 [AZD1775] (first compound max 10 µM, partner max 1 µM) | b0 |
| Cn1cnc2c(F)c(Nc3ccc(Br)cc3Cl)c(C(=O)NOCCO)cc21 [Selumetinib] + C[C@@H]1COCCN1C2=NC(=NC(=C2)C3(CC3)[S@](=N)(=O)C)C4=C5C=CNC5=NC=C4 [AZD6738] (first compound max 10 µM, 7x7, partner max 10 µM) | b0 |
| COc1cc2ncnc(Nc3ccc(F)c(Cl)c3)c2cc1OCCCN1CCOCC1 [Gefitinib] + CC(C)n1c(=O)n(C)c2cnc3cc(F)c(-c4ccc(OCCCN5CCCCC5)nc4)cc3c21 [AZD1390] (first compound max 10 µM, 7x7, partner max 0.3 µM) | b0 |
